The reader will find reported WBC count values listed item by item below.
- test details: Hematology assays in cynomolgus monkeys (Example 46)
- Type: in vivo
- protocol conditions: Day-5
Strand notation (5' to 3'): a small letter for the sugar, then the base; units joined by * are phosphorothioate-linked, units joined directly phosphodiester-linked; [ ] holds rarer units or linkages, { } end groups; capitals alone tell only the bases. e = 2'-O-(2-methoxyethyl) (MOE); [5mC] = 5-methylcytosine; d = 2'-deoxy (DNA)
Just the number please, in µL⁻¹, no unit attached.

Sample records with WBC count:
Req: Query WBC count for ISIS 449707: 3-8-3, 4-8-4, 2-10-2, 3-10-3 or 4-10-4 MOE microwalk gapmer (Table 46) (antisense e[5mC]*eA*e[5mC]*eA*dG*dT*dT*dT*d[5mC]*dT*dG*dG*e[5mC]*eA*eG*eG)
Resp: 11000

Req: Query WBC count for ISIS 445531: 5-8-5 or 6-8-6 MOE microwalk gapmer (Table 44) (antisense eG*eG*e[5mC]*eA*eT*dT*dG*dG*dT*dG*d[5mC]*dA*d[5mC]*eA*eG*eT*eT*eT)
Resp: 15000

Req: Query WBC count for ISIS 445522: 5-8-5 or 6-8-6 MOE microwalk gapmer (Table 44) (antisense eG*e[5mC]*eA*e[5mC]*eA*dG*dT*dT*dT*d[5mC]*dT*dG*dG*e[5mC]*eA*eG*eG*e[5mC])
Resp: 9000

Req: Query WBC count for ISIS 416850: MOE gapmer, nucleobases 1275 to 1318 of SEQ ID NO: 1 (Table 8) (antisense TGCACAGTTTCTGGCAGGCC; MOE gapmer, wing and gap sizes not given here)
Resp: 13000

Req: Query WBC count for ISIS 416858: MOE gapmer, nucleobases 1275 to 1318 of SEQ ID NO: 1 (Table 8) (antisense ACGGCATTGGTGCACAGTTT; MOE gapmer, wing and gap sizes not given here)
Resp: 11000

Req: Query WBC count for ISIS 449709: 3-8-3, 4-8-4, 2-10-2, 3-10-3 or 4-10-4 MOE microwalk gapmer (Table 46) (antisense eG*e[5mC]*eA*e[5mC]*dA*dG*dT*dT*dT*d[5mC]*dT*dG*dG*d[5mC]*eA*eG*eG*e[5mC])
Resp: 10000

New cases:
Req: Query WBC count for ISIS 449708: 3-8-3, 4-8-4, 2-10-2, 3-10-3 or 4-10-4 MOE microwalk gapmer (Table 46) (antisense eA*e[5mC]*eA*dG*dT*dT*dT*d[5mC]*dT*dG*dG*e[5mC]*eA*eG)
Resp: 10000

Req: Query WBC count for ISIS 449710: 3-8-3, 4-8-4, 2-10-2, 3-10-3 or 4-10-4 MOE microwalk gapmer (Table 46) (antisense e[5mC]*eA*e[5mC]*dA*dG*dT*dT*dT*d[5mC]*dT*dG*dG*d[5mC]*eA*eG*eG)
Resp: 11000

Req: Query WBC count for ISIS 449711: 3-8-3, 4-8-4, 2-10-2, 3-10-3 or 4-10-4 MOE microwalk gapmer (Table 46) (antisense eA*e[5mC]*dA*dG*dT*dT*dT*d[5mC]*dT*dG*dG*d[5mC]*eA*eG)
Resp: 12000

----------
- System: human Factor 11 mRNA
- test details: Dose-dependent inhibition of human Factor 11 in HepG2 cells, electroporation 375-12,000 nM (Example 32)
- Format: cell-based
- protocol conditions: electroporation, 375 nM, approx. 16 hours, relative to untreated control cells
Strand notation (5' to 3'): a small letter for the sugar, then the base; units joined by * are phosphorothioate-linked, units joined directly phosphodiester-linked; [ ] holds rarer units or linkages, { } end groups; capitals alone tell only the bases. e = 2'-O-(2-methoxyethyl) (MOE); [5mC] = 5-methylcytosine; d = 2'-deoxy (DNA)
The reader will find reported Percent inhibition of Factor 11 mRNA at 375 nM values listed item by item below.
Just the number please, in %, no unit attached.

Sample records with Percent inhibition of Factor 11 mRNA at 375 nM:
Req: State the measured Percent inhibition of Factor 11 mRNA at 375 nM (human Factor 11 mRNA) of 449711 (antisense eA*e[5mC]*dA*dG*dT*dT*dT*d[5mC]*dT*dG*dG*d[5mC]*eA*eG) [compound 449711]
Resp: 6

Req: State the measured Percent inhibition of Factor 11 mRNA at 375 nM (human Factor 11 mRNA) of 449707 (antisense e[5mC]*eA*e[5mC]*eA*dG*dT*dT*dT*d[5mC]*dT*dG*dG*e[5mC]*eA*eG*eG) [compound 449707]
Resp: 7

Req: State the measured Percent inhibition of Factor 11 mRNA at 375 nM (human Factor 11 mRNA) of 416850 (antisense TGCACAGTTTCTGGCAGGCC; 5-10-5 gapmer, further chemistry not given here) [compound 416850]
Resp: 40

New cases:
Req: State the measured Percent inhibition of Factor 11 mRNA at 375 nM (human Factor 11 mRNA) of 416858 (antisense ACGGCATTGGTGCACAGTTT; 5-10-5 gapmer, further chemistry not given here) [compound 416858]
Resp: 31

Req: State the measured Percent inhibition of Factor 11 mRNA at 375 nM (human Factor 11 mRNA) of 449708 (antisense eA*e[5mC]*eA*dG*dT*dT*dT*d[5mC]*dT*dG*dG*e[5mC]*eA*eG) [compound 449708]
Resp: 0

Req: State the measured Percent inhibition of Factor 11 mRNA at 375 nM (human Factor 11 mRNA) of 445522 (antisense eG*e[5mC]*eA*e[5mC]*eA*dG*dT*dT*dT*d[5mC]*dT*dG*dG*e[5mC]*eA*eG*eG*e[5mC]) [compound 445522]
Resp: 59

Req: State the measured Percent inhibition of Factor 11 mRNA at 375 nM (human Factor 11 mRNA) of 449709 (antisense eG*e[5mC]*eA*e[5mC]*dA*dG*dT*dT*dT*d[5mC]*dT*dG*dG*d[5mC]*eA*eG*eG*e[5mC]) [compound 449709]
Resp: 52

Req: State the measured Percent inhibition of Factor 11 mRNA at 375 nM (human Factor 11 mRNA) of 445531 (antisense eG*eG*e[5mC]*eA*eT*dT*dG*dG*dT*dG*d[5mC]*dA*d[5mC]*eA*eG*eT*eT*eT) [compound 445531]
Resp: 44

Req: State the measured Percent inhibition of Factor 11 mRNA at 375 nM (human Factor 11 mRNA) of 449710 (antisense e[5mC]*eA*e[5mC]*dA*dG*dT*dT*dT*d[5mC]*dT*dG*dG*d[5mC]*eA*eG*eG) [compound 449710]
Resp: 2

These data points were gathered from patent US20230263822A1.
